- Test system: HOP-62 NSCLC
- Measurement Protocol: NCI-60 one-dose screen, 48 h
- Test Context: 10 µM unless noted
This is part of a sample that, as a whole, favours compounds with a hit. Of some 83,000 tested, about 20% had one in any assay. Calls of active or inactive are those of the source. Rule for the calls: active = growth percent below 10; inactive = the rest.
Labels: active, inactive

| Compound | Target Desc | Class |
| --- | --- | --- |
| Cc1ccc2c(c1)C(=O)/C(=C\Nc1ccc(C(N)=O)cc1)C(O)O2 (stereo not drawn) | HOP-62 NSCLC | inactive |
| O=C(Nc1ccccc1OC(=O)c1ccccc1)c1ccccc1 | HOP-62 NSCLC | inactive |
| COC(=O)c1cc2oc(/C=N\NC(=O)c3cc4oc(C)c(C)c4[nH]3)cc2[nH]1 | HOP-62 NSCLC | inactive |
| COc1ccc(NC(=O)c2ccc(-c3ccccc3)cc2)c(C(N)=O)c1 | HOP-62 NSCLC | inactive |
| CCCCCCCC[Si](OCC)(OCC)OCC | HOP-62 NSCLC | inactive |
| CC[C@@H](C)/C=C(C)/C=C/C(=O)c1c(O)c(-c2ccc(O)cc2)cn(OC2CC(=O)CCC(C)OC(=O)CC2O)c1=O (stereo partly drawn) | HOP-62 NSCLC | active |
| COc1ccc(C(=O)COc2ccc(/C=C3\Oc4ccc5ccccc5c4C3=O)cc2)cc1 | HOP-62 NSCLC | inactive |
| NC(=NCCCCCCN=C(N)/N=C(\N)Nc1ccc(Cl)cc1)/N=C(\N)Nc1ccc(Cl)cc1 | HOP-62 NSCLC | active |
| Cc1ccc(-c2c3c(N)c4c(nc3nc3c2c(C)nn3-c2ccccc2)CCC4)cc1 | HOP-62 NSCLC | inactive |
| CCCCCCC(CC#N)(CCC)CCCC (stereo not drawn) | HOP-62 NSCLC | inactive |
| C[C@@H]1[C@H]2[C@H](C=C3[C@@H]4CC[C@H]5Cc6nc7c(nc6C[C@]5(C)[C@H]4C[C@@H](O)[C@@]32C)C[C@@H]2CC[C@H]3C4=C[C@@H]5O[C@@]6(CC[C@](C)(CO)O6)[C@@H](C)[C@@]5(O)[C@@]4(C)[C@H](O)C[C@@H]3[C@@]2(C)C7)O[C@]12CCC(C)(C)O2 | HOP-62 NSCLC | active |
| O=C(CNC(=O)c1cccc2ccccc12)Nc1ccccc1Cc1ccccc1 | HOP-62 NSCLC | inactive |
| COC(=O)[C@H](Cc1cnc[nH]1)NC(=O)[C@@H](NC(=O)Nc1cc(C(F)(F)F)cc(C(F)(F)F)c1)C(C)C | HOP-62 NSCLC | active |
| O=C(Nc1ccccc1S)c1ccccc1 | HOP-62 NSCLC | inactive |
| COc1cc(C2CC(C3C(=O)N(C)C(=O)N(C)C3=O)=NN2c2cc(Cl)cc(Cl)c2)cc(OC)c1OC (stereo not drawn) | HOP-62 NSCLC | inactive |
| FC(F)(F)c1cc(-c2nnc3n2N=C(N2CCCC2)CS3)cc(C(F)(F)F)c1 | HOP-62 NSCLC | inactive |
| O=Cc1ncc(-c2ccc(C(F)(F)F)cc2)c(NC2CCCCCC2)n1 | HOP-62 NSCLC | active |
| N#Cc1c(-c2ccccc2)cc(-c2ccccc2)n(CC(=O)O)c1=O | HOP-62 NSCLC | inactive |

###

- Test system: IGROV1 ovarian
- Measurement Protocol: NCI-60 one-dose screen, 48 h (100 = growth as untreated, 0 = no growth, -100 = all killed)
- Test Context: 10 µM unless noted
The panel holds about 83,000 compounds, 20% with a hit somewhere; the sample as a whole holds those more often. Active and inactive are the calls of the source. Rule for the calls: active = growth percent below 10; inactive = the rest.
# maps each entry to its growth

| Compound | Target Desc | growth |
| --- | --- | --- |
| O=c1ccn(C2CC=C(CO)O2)c(=O)[nH]1 (centres undefined) | IGROV1 ovarian | 86.2% (inactive) |
| N#Cc1ccc(-c2csc(Nc3ccc4nc5n(c(=O)c4c3)CCC5)n2)cc1 | IGROV1 ovarian | 107% (inactive) |
| Clc1ccc(C2c3ccccc3-c3nccn32)c(Cl)c1 (centres undefined) | IGROV1 ovarian | 77.1% (inactive) |
| CCCCCN(CCCCC)CCCNc1c2c(nc3ccc(Cl)cc13)CCCC2 | IGROV1 ovarian | 17.5% (inactive) |

###

- Test system: MALME-3M melanoma
- Measurement Protocol: NCI-60 one-dose screen, 48 h
- Test Context: 10 µM unless noted
The panel holds about 83,000 compounds, 20% with a hit somewhere; the sample as a whole holds those more often. Activity calls are given as the source filed them. How the source made its calls: active means growth percent below 10; inactive means the rest.
Labels: true (active), false (inactive)

| Compound | Class |
| --- | --- |
| O=C1/C(=C/c2ccccc2O)C(=S)SN1Cc1ccco1 | false |
| C[N+]1(C)C2CC[C@@H]1CC(OC(=O)C(O)c1ccccc1)C2 (some centres undefined) | false |
| [N-]=[N+]=NCc1cccc(/C(O)=C/C(=O)C(=O)O)c1 | false |
| Cc1cc(Br)c(C)cc1Br | false |
| COC(=O)[C@H](CCCCNC(=O)OCc1ccccc1)NC(=O)[C@@H](NC(=O)Nc1cc(C(F)(F)F)cc(C(F)(F)F)c1)C(C)C | true |
| Cc1cc2ccccn2c1C(=O)c1ccc(C(=O)c2ccccc2)cc1 | false |
| COc1ccc2nc(NC(=O)CN3CCn4c(nnc4C(F)(F)F)C3)sc2c1 | false |
| COc1ccc(OC)c(CCn2cncc2-c2c[nH]c3cc(Br)ccc23)c1 | false |
| O=[N+]([O-])c1cc([N+](=O)[O-])c(N2CCCC2)cc1NN=C(c1ccc(O)cc1)c1ccc(O)cc1 | false |

###

- Test system: HOP-62 NSCLC
- Measurement Protocol: NCI-60 one-dose screen, 48 h (100 = growth as untreated, 0 = no growth, -100 = all killed)
- Test Context: 10 µM unless noted
About 83,000 compounds went through this panel and 20% of them were active in at least one assay; those are over-represented in the sample as a whole.

| Entry Smiles | growth / % |
| --- | --- |
| Cc1ccc2nc3c(n2c1)C(=O)C(=O)c1ccccc1-3 | -74.9 |
| COc1ccc(Cl)cc1Nc1nc(C(F)(F)F)ccc1C(=O)N/N=C/c1c(Cl)cccc1Cl | 58.5 |
| CCSc1nc(-c2cccs2)n2nc(-c3ccco3)cc2n1 | 101 |
| CC(=O)Nc1cc(C(c2ccccc2)c2ccccc2)cc(C(c2ccccc2)c2ccccc2)c1C | 8.81 |

###

- System: ACHN renal
- Measurement Protocol: NCI-60 one-dose screen, 48 h
- Test Context: 10 µM unless noted
About 83,000 compounds went through this panel and 20% of them were active in at least one assay; those are over-represented in the sample as a whole. Activity calls are given as the source filed them. The calls were made as follows: active = growth percent below 10; inactive = the rest.
Labels: YES for active, NO for inactive

| Compound | Class |
| --- | --- |
| COc1ccc(Oc2ccccc2NC(=O)CNC(=O)c2cccc3ccccc23)cc1 | NO |
| Nc1ccc2c(c1)Cc1cc(Cl)c(Cl)cc1-2 | NO |
| O=C1/C(=C/c2ccccc2Cl)CCc2ccccc21 | NO |
| COc1cnc2c(c1)C(=O)c1c-2n(CCCNC2=NCCS2)c(=O)c2cc(F)ccc12 | YES |
| Cc1cc(Cl)ccc1Nc1nc(C(F)(F)F)ccc1C(=O)N/N=C/c1ccc(Cl)cc1 | YES |
| N#Cc1ccccc1C#Cc1ccccc1C#Cc1ccc(OCCCCCCOc2ccc(C#Cc3ccccc3C#Cc3ccccc3C#N)cc2)cc1 | NO |
| O=C(Nc1cccc(-n2cc(-c3ccncc3)c(-c3cc(O)cc(Cl)c3)n2)c1)Nc1ccc(Cl)c(Cl)c1 | YES |
| COc1cc(/C=C/C(=O)CC(=O)/C=C/c2ccc(OC(=O)CCNC34CC5CC(CC(C5)C3)C4)c(OC)c2)ccc1OC(=O)CCNC12CC3CC(CC(C3)C1)C2 | NO |
| CCC(C)C1NC(=O)C(CCNCS(=O)(=O)O)NC(=O)C(NC(=O)C(CCNCS(=O)(=O)O)NC(=O)C(NC(=O)C(CCNCS(=O)(=O)O)NC(=O)CCCCC(C)C)C(C)O)CCNC(=O)C(C(C)O)NC(=O)C(CCNCS(=O)(=O)O)NC(=O)C(CCNCS(=O)(=O)O)NC(=O)C(C(C)CC)NC1=O (stereo not drawn) | NO |
| O=c1[nH]c(N2CCC(Cc3ccccc3)CC2)nc2sc3c(c12)CCCC3 | NO |
| CN1CCN(CCCCCN=c2cc3c(=O)n(CCCCCN4CCN(C)CC4)c(=O)c4c(NCCCCCN5CCN(C)CC5)cc5c(O)n(CCCCCN6CCN(C)CC6)c(=O)c2c5c4-3)CC1 | NO |
| Cc1[nH]ccc2cc3nc4ccccc4c3cc12 | NO |
| COc1ccc(OC)c(CCn2cncc2-c2c[nH]c3cc(Br)ccc23)c1 | NO |

Where these numbers come from: PubChem BioAssay (NCI)
